Exercise: state measured Biodistribution: Lung for each of the compounds provided.
# Test protocol: Biodistribution of radiotracers in normal mice
# Type: in vivo, mouse
# Test context: normal male mice, 2 min
Numbers only, in % dose/g.

>>> quantitative_readout("O=C(O)CCc1ccc2c(c1)C[N+]13CC[N+]45CC(=O)[O][68Ga-3]14([O]C(=O)C3)([O]2)[O]c1ccc(CCC(=O)NCCCCCC(=O)NCCCC[C@H](NC(=O)N[C@@H](CCC(=O)O)C(=O)O)C(=O)O)cc1C5 (stereo partly shown) [[^68Ga]1a, reference compound]")
5.29
>>> quantitative_readout("O=C(O)CC[C@H](NC(=O)N[C@@H](CCCCNC(=O)CCCCCNC(=O)CCc1ccc2c(n1)C[N+]13CC[N+]45CC(=O)[O][68Ga-3]14([O]C(=O)C3)([O]2)[O]c1ccc(CCC(=O)NCCCCCC(=O)NCCCC[C@H](NC(=O)N[C@@H](CCC(=O)O)C(=O)O)C(=O)O)nc1C5)C(=O)O)C(=O)O (stereo partly shown) [[^68Ga]3]")
7.49
>>> quantitative_readout("O=C(O)CCc1ccc2c(c1)C[N+]13CC[N+]45CC(=O)[O][68Ga-3]14([O]C(=O)C3)([O]2)[O]c1ccc(CCC(=O)NCC(=O)N[C@@H](Cc2ccc(OCC(=O)N[C@@H](Cc3ccccc3)C(=O)NCCCC[C@H](NC(=O)N[C@@H](CCC(=O)O)C(=O)O)C(=O)O)cc2)C(=O)O)cc1C5 (stereo partly shown) [[^68Ga]5b]")
5.75

Now, please, on to the next compound.
In: Supply reported Biodistribution: Lung belonging to this compound: O=C(O)CC[C@H](NC(=O)N[C@@H](CCCCNC(=O)CCCCCNC(=O)CCc1ccc2c(c1)C[N+]13CC[N+]45CC(=O)[O][68Ga-3]14([O]C(=O)C3)([O]2)[O]c1ccc(CCC(=O)NCC(=O)O)cc1C5)C(=O)O)C(=O)O (stereo partly shown) [[^68Ga]1c]
Out: 5.42
